molecular target: human orexin 1 receptor (Homo sapiens); test: Human orexin 1 receptor radioligand binding; conditions: human orexin 1 receptor; averages of 2-20 runs; read-out: hOX1 Ki
reported-metric: pKi
Scale for pKi: -log10 of concentration given in mol/L; no unit attached.

Worked set:
1) O=C(c1cccc(F)c1-c1ncccn1)N1C[C@H]2C[C@@H](Oc3ccc(Cl)cn3)[C@@H]1C2: 8.10
2) O=C(c1cccc(F)c1-c1ncccn1)N1C[C@@H]2CC[C@H]1[C@H](Oc1ccc(Cl)cn1)C2: 8.10
3) O=C(c1cc(F)ccc1-c1ncccn1)N1C[C@H]2C[C@@H](Oc3ccc(Br)cn3)[C@@H]1C2: 8.30
4) O=C(c1cccc(F)c1-c1ncccn1)N1C[C@@H]2CC[C@H]1[C@H](Oc1cnc(C(F)(F)F)cn1)C2: 7.80
5) O=C(c1ccccc1-c1ncccn1)N1C[C@H]2C[C@@H](Nc3ncc(C(F)(F)F)cn3)[C@@H]1C2: 8.40
6) O=C(c1cccc(F)c1-n1nccn1)N1C[C@H]2C[C@@H](Nc3cnc(C(F)(F)F)cn3)[C@@H]1C2: 8.15

Field: next compound
Task item: What pKi appears in the records for this compound with human orexin 1 receptor (Homo sapiens)? O=C(c1cccc(F)c1-c1ncccn1)N1C[C@H]2C[C@@H](Nc3cnc(Cl)cn3)[C@@H]1C2
Reply: 7.85

---

target: human orexin 2 receptor (Homo sapiens (Human), UniProt O43614); test: Human orexin 2 receptor radioligand binding; conditions: human orexin 2 receptor; averages of 2-20 runs; read-out: hOX2 Ki
Sequence (O43614 whole entry): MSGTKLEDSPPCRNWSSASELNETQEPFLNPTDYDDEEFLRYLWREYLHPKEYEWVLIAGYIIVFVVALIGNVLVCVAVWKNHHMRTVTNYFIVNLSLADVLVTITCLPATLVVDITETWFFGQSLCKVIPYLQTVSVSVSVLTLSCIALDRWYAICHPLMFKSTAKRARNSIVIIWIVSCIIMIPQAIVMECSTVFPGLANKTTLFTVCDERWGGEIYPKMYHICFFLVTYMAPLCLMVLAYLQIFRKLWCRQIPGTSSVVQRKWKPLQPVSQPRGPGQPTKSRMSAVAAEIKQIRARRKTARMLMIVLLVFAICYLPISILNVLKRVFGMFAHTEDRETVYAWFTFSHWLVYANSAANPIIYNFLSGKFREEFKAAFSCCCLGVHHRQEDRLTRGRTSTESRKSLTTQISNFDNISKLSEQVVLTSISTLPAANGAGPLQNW
Measured pKi of individual entries
A value of pKi is the negative decimal logarithm of a concentration given in moles per litre.

1) O=C(c1ccccc1-c1ncccn1)N1C[C@H]2C[C@@H](Oc3cnc(C(F)(F)F)cn3)[C@@H]1C2: 5.46
2) Cc1ccc(-n2nccn2)c(C(=O)N2C[C@H]3C[C@@H](Oc4ccc(C(F)F)cn4)[C@@H]2C3)n1: 6.66
3) O=C(c1cccc(F)c1-c1ncccn1)N1C[C@@H]2CC[C@H]1[C@H](Oc1cnc(C(F)(F)F)cn1)C2: 5.74

Task item: Item under review: CN(c1cnc(C(F)(F)F)cn1)[C@@H]1C[C@H]2C[C@@H]1N(C(=O)c1cccc(F)c1-c1ncccn1)C2 . Reported pKi?
Reply: 6.07

Task item: Can you share its pKi? I mean this compound: Cc1ccc(-n2nccn2)c(C(=O)N2C[C@H]3C[C@@H](Oc4ccc(F)cn4)[C@@H]2C3)n1
Reply: 5.44

Task item: Given Cc1ccc(-c2ncccn2)c(C(=O)N2C[C@H]3C[C@@H](Nc4ccc(C(F)(F)F)nn4)[C@@H]2C3)n1 , state its recorded pKi.
Reply: 5.77

Task item: Which value of pKi has been reported for Cc1ccc(-n2nccn2)c(C(=O)N2C[C@H]3C[C@@H](Nc4cnc(C(F)(F)F)cn4)[C@@H]2C3)n1 in the records?
Reply: 6.61

---

biological target: rat orexin 1 receptor (Rattus norvegicus, UniProt P56718); assay: Rat orexin 1 receptor radioligand binding; settings: rat orexin 1 receptor; averages of 2-20 runs; read-out: rOX1 Ki
Exam item: assign condition met to entries whose Ki is below 20 nM and condition not met to entries at or above 20 nM. Note that a value of exactly 20 nM receives condition not met.

See these solved cases before continuing.
1) O=C(c1ccccc1-n1nccn1)N1C[C@@H]2CC[C@H]1[C@H](Oc1ccc(Br)cn1)C2: condition met
2) Cc1noc(-c2cc(F)ccc2C(=O)N2C[C@H]3C[C@@H](Nc4ccc(C(F)(F)F)cn4)[C@@H]2C3)n1: condition not met

Task item: Determine whether this molecule shows Ki lower than 20 nM (ties excluded): O=C(c1ccc(F)cc1-c1ncccn1)N1C[C@@H]2CC[C@H]1[C@H](Oc1ccc(C(F)(F)F)cn1)C2
Reply: condition met

Task item: Determine whether this molecule shows Ki lower than 20 nM (ties excluded): Cc1ccc(-n2nccn2)c(C(=O)N2C[C@H]3C[C@@H](Oc4ccc(C(F)F)cn4)[C@@H]2C3)n1
Reply: condition not met

Task item: Problem: For the molecule O=C(c1ccc(F)cc1-n1nccn1)N1C[C@H]2C[C@@H](Oc3ccc(Br)cn3)[C@@H]1C2 , is Ki under 20 nM?
Reply: condition met

Task item: # TODO verify Ki < 20 nM strictly for this molecule: O=C(c1ccc(F)cc1-n1nccn1)N1C[C@H]2C[C@@H](Nc3ncc(C(F)(F)F)cn3)[C@@H]1C2
Reply: condition not met

Task item: Lab log: compare recorded Ki with 20 nM; is it strictly lower for Cc1cccc(C(=O)N2C[C@H]3C[C@@H](Oc4ccc(C(F)(F)F)cn4)[C@@H]2C3)c1-c1ncc(F)cn1 ?
Reply: condition met
